Test system: Mus musculus
PROTOCOL_SUMMARY: Ability to reverse electroconvulsive shock (ECS) induced amnesia in mice, at a dose of 5 mg/Kg administered perorally
Type: functional
Label TRUE when Reversal is strictly below 60%; otherwise label FALSE.

Before answering, review these 6 worked examples.
>  <COMPOUND>
O=C1CCC2CCC(=O)N12

>  <CATEGORY>
FALSE

$$$$
>  <COMPOUND>
O=C1CCCC2CCCC(=O)N12

>  <CATEGORY>
TRUE

$$$$
>  <COMPOUND>
O=C1CCC(CCC(=O)OCc2ccccc2)N1 (configuration not stated)

>  <CATEGORY>
FALSE

$$$$
>  <COMPOUND>
O=C1CCCC2CCC(=O)N12 (configuration not stated)

>  <CATEGORY>
TRUE

$$$$
>  <COMPOUND>
CC1CC2CCC(=O)N2C1=O (configuration not stated)

>  <CATEGORY>
TRUE

$$$$
>  <COMPOUND>
O=C(O)CCCC1CCCC(=O)N1 (configuration not stated)

>  <CATEGORY>
FALSE

$$$$

Continue with the compound presented below.
Query block: Threshold test, Reversal < 60%: O=C(O)CCC1CCC(=O)N1 (configuration not stated)
Result block: FALSE
